# Target Entity: Norwalk GGI.1 Norovirus protease (Norovirus, UniProt Q83883)
# Sequence (Q83883 1101-1281): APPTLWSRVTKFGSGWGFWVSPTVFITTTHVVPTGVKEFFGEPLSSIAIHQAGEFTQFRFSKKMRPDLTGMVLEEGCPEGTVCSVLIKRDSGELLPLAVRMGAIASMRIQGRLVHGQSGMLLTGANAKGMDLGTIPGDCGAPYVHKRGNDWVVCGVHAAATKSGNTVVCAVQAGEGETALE
# Method: Noro-Norwalk FRET protease assay (Norwalk GGI.1)
# Format: biochemical, Norwalk virus
# Measurement Setup: Table C; FRET protease assay; read-out: Norwalk GGI.1 IC50
pIC50: −log10 of the molar value.
pIC50 vs 5: at or above is True, below is False.

>  <Compound>
CN(C)C(=O)CC[C@@H](C=O)NC(=O)[C@H](CC1CCCCC1)NC(=O)OCc1cccc(Cl)c1 [Compound A6]

>  <Answer Label>
True

$$$$
>  <Compound>
CN(CCc1ccccc1)C(=O)CC[C@H](NC(=O)[C@H](CC1CCCCC1)NC(=O)OCc1cccc(Cl)c1)C(O)S(=O)(=O)O (stereo in doubt) [Compound A114]

>  <Answer Label>
True

$$$$

Item CCOCCN(C)C(=O)CC[C@H](NC(=O)C(CC1CCCCC1)NC(=O)OCc1cccc(Cl)c1)C(O)P(=O)(OCC)OCC (stereo in doubt) [Compound A12] with pIC50 of 5 or above?
False

Item CCOP(=O)(OCC)C(O)[C@H](CCC(=O)N(C)Cc1ccccc1)NC(=O)[C@H](CC1CCCCC1)NC(=O)OCc1cccc(Cl)c1 (stereo partly drawn) [Compound A13] with pIC50 of 5 or above?
False

Item CON(C)C(=O)[C@H](CCC(=O)N1CCCC(c2ccccc2)C1)NC(=O)[C@H](CC1CCCCC1)NC(=O)OCc1cccc(Cl)c1 (stereo in doubt) [Compound A43] with pIC50 of 5 or above?
False
